# credit: patent US9637453B2

tested-system: Full length human recombinant HDAC11 (Homo sapiens)
Construct: Full length human recombinant HDAC6 and HDAC11 proteins were expressed in baculoviral system
measurement-protocol: In vitro histone deacetylase assay, enzymatic HDAC11 (electrophoretic mobility shift assay)
condition-summary: 10 nM HDAC11; 2 μM peptide substrate FAM-RHKK(tri-fluor-Ac)—NH2; 25° C.; 12 concentrations; read-out: HDAC11 Activity Range (IC50)
pIC50: −log10 of the molar value.
Reported pIC50 values are given for each entry in this list.

compound	measurement-label	reported
COc1cccc(CN2CC[C@]3(CCc4ccc(C(=O)NO)cc4C3)C2=O)c1 [Compound I-96]	pIC50	6.30 to 7.00

Q: What does the record list as pIC50 for COCCn1c(CN2CC[C@@]3(CCc4ccc(C(=O)NO)cc4C3)C2=O)nc2ccccc21 [Compound I-45] ?
Result: < 6.30

Q: What does the record list as pIC50 for O=C(NO)c1ccc2c(c1)C[C@]1(CC2)CCN(CCCO)C1=O [Compound I-80] ?
Result: < 6.30

Q: What does the record list as pIC50 for O=C(NO)c1ccc2c(c1)C[C@@]1(CC2)CCN(Cc2ccccc2)C1=O [Compound I-35] ?
Result: < 6.30

Q: What does the record list as pIC50 for O=C(NO)c1ccc2c(c1)CC1(CC2)CCN(C(=O)C2CCCCC2)C1 (centres unmarked) [Compound I-4] ?
Result: < 6.30

---

Reported pIC50 values are given for each entry in this list.
tested-system: Full length human recombinant HDAC11 (Homo sapiens, UniProt Q96DB2)
Construct: Full length human recombinant HDAC6 and HDAC11 proteins were expressed in baculoviral system
measurement-protocol: In vitro histone deacetylase assay, enzymatic HDAC11 (electrophoretic mobility shift assay)
condition-summary: 10 nM HDAC11; 2 μM peptide substrate FAM-RHKK(tri-fluor-Ac)—NH2; 25° C.; 12 concentrations; read-out: HDAC11 Activity Range (IC50)
pIC50: −log10 of the molar value.

The following molecules have reported results that may help.
molecule	tested-system	pIC50
CN(C)CCCN1CCC2(CCc3ccc(C(=O)NO)cc3C2)C1=O (centres unmarked)	Full length human recombinant HDAC11 (Homo sapiens, UniProt Q96DB2)	< 6.30
O=C(NO)c1ccc2c(c1)C[C@@]1(CC2)CCN(c2nc3ccccc3[nH]2)C1=O	Full length human recombinant HDAC11 (Homo sapiens, UniProt Q96DB2)	< 6.30
O=C(NO)c1ccc2c(c1)C[C@@]1(CC2)CC(=O)N(CC2CCC2)C1	Full length human recombinant HDAC11 (Homo sapiens, UniProt Q96DB2)	< 6.30

Q: For Full length human recombinant HDAC11 (Homo sapiens, UniProt Q96DB2), provide pIC50 of CC(C)N1CCC2(CCc3ccc(C(=O)NO)cc3C2)C1=O (centres unmarked) please.
Result: < 6.30

Q: For Full length human recombinant HDAC11 (Homo sapiens, UniProt Q96DB2), provide pIC50 of O=C(NO)c1ccc2c(c1)C[C@@]1(CC2)CCN(Cc2ccc(Cl)cn2)C1=O please.
Result: < 6.30

Q: For Full length human recombinant HDAC11 (Homo sapiens, UniProt Q96DB2), provide pIC50 of O=C(NO)c1ccc2c(c1)C[C@@]1(CC2)CCN(Cc2ccc(C(F)(F)F)cc2)C1=O please.
Result: ≥ 7.00

Q: For Full length human recombinant HDAC11 (Homo sapiens, UniProt Q96DB2), provide pIC50 of O=C(NO)c1ccc2c(c1)C[C@]1(CC2)CCN(Cc2ccc3ccccc3c2)C1=O please.
Result: ≥ 7.00

Q: For Full length human recombinant HDAC11 (Homo sapiens, UniProt Q96DB2), provide pIC50 of O=C(NO)c1ccc2c(c1)C[C@]1(CC2)CCN(Cc2ccc(OC(F)(F)F)cc2)C1=O please.
Result: ≥ 7.00

---

tested-system: Full length human recombinant HDAC11 (Homo sapiens, UniProt Q96DB2)
Construct: Full length human recombinant HDAC6 and HDAC11 proteins were expressed in baculoviral system
measurement-protocol: In vitro histone deacetylase assay, enzymatic HDAC11 (electrophoretic mobility shift assay)
condition-summary: 10 nM HDAC11; 2 μM peptide substrate FAM-RHKK(tri-fluor-Ac)—NH2; 25° C.; 12 concentrations; read-out: HDAC11 Activity Range (IC50)
measurement-label: IC50

The following molecules have reported results that may help.
molecule	reported
COc1ccccc1CN1CCC2(CCc3ccc(C(=O)NO)cc3C2)C1 (stereo not drawn)	> 500 nM
Cc1ccc(N2CC[C@@]3(CCc4ccc(C(=O)NO)cc4C3)C2=O)c(C)c1	> 500 nM
O=C(NO)c1ccc2c(c1)CC1(CC2)CCN(Cc2ccc(Cl)c(C(F)(F)F)c2)C1=O (stereo not drawn)	≤ 100 nM
CCCN1CC[C@@]2(CCc3ccc(C(=O)NO)cc3C2)C1=O	> 500 nM
O=C(NO)c1ccc2c(c1)C[C@@]1(CC2)CC(=O)N(c2ccccc2)C1	> 500 nM

Q: What does the record list as IC50 for CC(C)N1CCC2(CCc3ccc(C(=O)NO)cc3C2)C1 (stereo not drawn) ?
Result: > 500 nM

Q: What does the record list as IC50 for CCN1C[C@@]2(CCc3ccc(C(=O)NO)cc3C2)CC1=O ?
Result: > 500 nM

Q: What does the record list as IC50 for O=C(NO)c1ccc2c(c1)C[C@@]1(CC2)CCN(c2cnc3ccccc3c2)C1=O ?
Result: > 500 nM

Q: What does the record list as IC50 for O=C(NO)c1ccc2c(c1)C[C@]1(CC2)CCN(CC2CCC2)C1=O ?
Result: > 500 nM

Q: What does the record list as IC50 for O=C(NO)c1ccc2c(c1)C[C@]1(CC2)CCN(c2cnc3ccccc3c2)C1=O ?
Result: ≤ 100 nM

---

tested-system: Full length human recombinant HDAC11 (Homo sapiens, UniProt Q96DB2)
Construct: Full length human recombinant HDAC6 and HDAC11 proteins were expressed in baculoviral system
measurement-protocol: In vitro histone deacetylase assay, enzymatic HDAC11 (electrophoretic mobility shift assay)
condition-summary: 10 nM HDAC11; 2 μM peptide substrate FAM-RHKK(tri-fluor-Ac)—NH2; 25° C.; 12 concentrations; read-out: HDAC11 Activity Range (IC50)
Procedure: The enzymatic HDAC6 and HDAC11 assays were performed using electrophoretic mobility shift assay. Full length human recombinant HDAC6 and HDAC11 proteins were expressed in baculoviral system and purified by affinity chromatography. […] The terminated assay plates were analyzed on LabChip® 3000 microfluidic electrophoresis instrument (Perkin Elmer/Caliper Life Sciences). The fluorescence intensity of the electrophoretically separated de-acetylated product and substrate peptide was measured. […]
measurement-label: IC50

The following compounds have reported results that may help.
record-smiles	IC50
O=C(NO)c1ccc2c(c1)C[C@@]1(CC2)CCN(Cc2cnc(O)s2)C1=O	> 500 nM
O=C(NO)c1ccc2c(c1)C[C@]1(CC2)CCN(c2ccc(Oc3ccccc3)cc2)C1=O	≤ 100 nM
O=C(NO)c1ccc2c(c1)C[C@@]1(CC2)CCN(c2ccccc2)C1	> 500 nM

Okay, now this compound:
Q: What does the record list as IC50 for O=C(NO)c1ccc2c(c1)C[C@@]1(CC2)CCN(CC2CCOCC2)C1=O ?
Result: > 500 nM

---

tested-system: Full length human recombinant HDAC11 (Homo sapiens, UniProt Q96DB2)
Construct: Full length human recombinant HDAC6 and HDAC11 proteins were expressed in baculoviral system
Sequence (Q96DB2 1-347): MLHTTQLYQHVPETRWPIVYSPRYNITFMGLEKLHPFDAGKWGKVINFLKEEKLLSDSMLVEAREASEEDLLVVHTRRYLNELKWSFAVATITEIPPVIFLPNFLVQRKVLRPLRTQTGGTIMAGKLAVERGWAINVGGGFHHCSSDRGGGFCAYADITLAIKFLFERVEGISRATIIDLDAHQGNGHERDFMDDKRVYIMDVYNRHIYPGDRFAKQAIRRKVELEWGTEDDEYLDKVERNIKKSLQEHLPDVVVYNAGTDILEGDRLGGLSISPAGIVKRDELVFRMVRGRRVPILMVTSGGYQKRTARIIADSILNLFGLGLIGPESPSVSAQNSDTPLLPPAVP
measurement-protocol: In vitro histone deacetylase assay, enzymatic HDAC11 (electrophoretic mobility shift assay)
condition-summary: 10 nM HDAC11; 2 μM peptide substrate FAM-RHKK(tri-fluor-Ac)—NH2; 25° C.; 12 concentrations; read-out: HDAC11 Activity Range (IC50)
pIC50: −log10 of the molar value.
Reported pIC50 values are given for each entry in this list.

The following compounds have reported results that may help.
compound	pIC50
O=C(NO)c1ccc2c(c1)C[C@@]1(CC2)CCN(c2ccc(Oc3ccccc3)cc2)C1=O [Compound I-116]	< 6.30
O=C(NO)c1ccc2c(c1)C[C@@]1(CC2)CCN(C/C=C/c2ccccc2)C1=O [Compound I-58]	6.30 to 7.00
O=C(NO)c1ccc2c(c1)CC1(CC2)CCN(Cc2ccncc2)C1=O (centres unmarked) [Compound I-22]	< 6.30
O=C(NO)c1ccc2c(c1)C[C@]1(CC2)CCN(c2cccnc2)C1=O [Compound I-29]	< 6.30
O=C(NO)c1ccc2c(c1)C[C@]1(CC2)CCN(c2cccc(OCCN3CCOCC3)c2)C1=O [Compound I-117]	< 6.30

Q: What does the record list as pIC50 for COc1ccccc1CN1CC[C@@]2(CCc3ccc(C(=O)NO)cc3C2)C1=O [Compound I-65] ?
Result: < 6.30

Q: What does the record list as pIC50 for O=C(NO)c1ccc2c(c1)CC1(CC2)CCN(c2ccccc2)C1=O (centres unmarked) [Compound I-26] ?
Result: 6.30 to 7.00

Q: What does the record list as pIC50 for CC(C)N1C[C@]2(CCc3ccc(C(=O)NO)cc3C2)CC1=O [Compound I-140] ?
Result: < 6.30

Q: What does the record list as pIC50 for O=C(NO)c1ccc2c(c1)C[C@@]1(CC2)CCN(Cc2ccccc2OC(F)F)C1=O [Compound I-78] ?
Result: < 6.30

Q: What does the record list as pIC50 for O=C(NO)c1ccc2c(c1)C[C@]1(CC2)CCN(Cc2ccc(F)cc2)C1=O [Compound I-42] ?
Result: ≥ 7.00

Q: What does the record list as pIC50 for O=C(NO)c1ccc2c(c1)C[C@@]1(CC2)CC(=O)N(C2CC2)C1 [Compound I-141] ?
Result: < 6.30

Q: What does the record list as pIC50 for Cc1nn(C)cc1N1CC[C@]2(CCc3ccc(C(=O)NO)cc3C2)C1=O [Compound I-109] ?
Result: < 6.30

Q: What does the record list as pIC50 for O=C(NO)c1ccc2c(c1)CC1(CC2)CCN(c2ccncc2)C1=O (centres unmarked) [Compound I-30] ?
Result: < 6.30

Q: What does the record list as pIC50 for O=C(NO)c1ccc2c(c1)C[C@@]1(CC2)CCN(Cc2cccnc2)C1=O [Compound I-70] ?
Result: < 6.30

Q: What does the record list as pIC50 for O=C(NO)c1ccc2c(c1)C[C@]1(CC2)CC(=O)N(C2CC2)C1 [Compound I-148] ?
Result: < 6.30

Q: What does the record list as pIC50 for O=C(NO)c1ccc2c(c1)C[C@]1(CC2)CCN(C/C=C/c2ccccc2)C1=O [Compound I-86] ?
Result: ≥ 7.00

Q: What does the record list as pIC50 for O=C(NO)c1ccc2c(c1)C[C@@]1(CC2)CCN(c2ccc(Cl)c(Cl)c2)C1=O [Compound I-112] ?
Result: < 6.30
